test: Single ascending dose; assay type: in vivo, human; conditions: human, plasma, oral, T1/2, range across all SAD panels, SAD, 4-500 mg
readout: half-life

For C[C@@H]1CCC[C@H](n2cnc(-c3cc(Cl)ccc3-n3cc(Cl)nn3)cc2=O)c2cc(ccn2)-c2c(cnn2C(F)F)NC1=O , what is its reported half-life?
498 to 828 min

Just for reference, paper PMC8841437 is where these values come from.
